ASSAYED SYSTEM: PALDH (Pseudomonas aeruginosa)
Sequence (Q9I530 1-329): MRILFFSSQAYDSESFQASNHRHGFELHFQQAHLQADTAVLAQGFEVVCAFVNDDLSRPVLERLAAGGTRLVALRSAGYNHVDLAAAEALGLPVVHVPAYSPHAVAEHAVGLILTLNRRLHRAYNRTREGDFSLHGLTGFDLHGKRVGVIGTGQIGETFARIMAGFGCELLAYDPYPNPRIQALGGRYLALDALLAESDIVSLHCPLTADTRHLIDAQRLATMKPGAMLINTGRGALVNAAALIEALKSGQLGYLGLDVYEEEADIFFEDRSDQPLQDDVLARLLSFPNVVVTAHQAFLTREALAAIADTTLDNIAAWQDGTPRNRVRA
PROCEDURE SUMMARY: NADH absorbance at […] nm, pyruvate reduction, nonlinear regression
READOUT TYPE: pKi
Remember, pKi is on a log scale: it is -log10 of the molar concentration.

Need pKi, item NC(=O)C(=O)O [Oxamate]
3.54

---

ASSAYED SYSTEM: ECLDH (Escherichia coli)
Sequence (P52643 1-329): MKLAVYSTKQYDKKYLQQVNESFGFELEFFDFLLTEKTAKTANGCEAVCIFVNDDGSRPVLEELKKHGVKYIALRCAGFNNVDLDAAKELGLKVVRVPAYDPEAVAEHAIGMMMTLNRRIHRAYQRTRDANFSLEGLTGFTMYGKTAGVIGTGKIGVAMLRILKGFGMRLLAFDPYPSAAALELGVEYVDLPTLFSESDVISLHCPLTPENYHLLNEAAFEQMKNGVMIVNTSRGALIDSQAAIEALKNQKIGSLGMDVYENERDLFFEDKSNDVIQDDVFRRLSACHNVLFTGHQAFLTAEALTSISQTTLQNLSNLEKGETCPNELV
READOUT TYPE: Ki (mM)
// note: answer is a bare numeric in mM

Need Ki, item NC(=O)C(=O)O [Oxamate]
20

---

ASSAYED SYSTEM: UniProt Q8RG11
Sequence (Q8RG11 1-335): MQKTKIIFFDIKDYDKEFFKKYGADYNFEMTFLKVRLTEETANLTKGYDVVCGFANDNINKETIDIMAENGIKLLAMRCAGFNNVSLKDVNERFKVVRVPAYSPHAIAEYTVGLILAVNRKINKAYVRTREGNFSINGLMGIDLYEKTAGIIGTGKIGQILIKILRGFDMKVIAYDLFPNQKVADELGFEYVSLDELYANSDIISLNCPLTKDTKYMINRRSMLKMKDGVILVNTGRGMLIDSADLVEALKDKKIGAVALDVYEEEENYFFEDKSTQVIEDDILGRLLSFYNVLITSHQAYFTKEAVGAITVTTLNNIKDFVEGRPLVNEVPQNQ
READOUT TYPE: pKi
Remember, pKi is on a log scale: it is -log10 of the molar concentration.

Need pKi, item NC(=O)C(=O)O [Oxamate]
2.03

---

ASSAYED SYSTEM: ECLDH (Escherichia coli)
Construct: gene ldhA
PROCEDURE SUMMARY: NADH absorbance at […] nm, activation of pyruvate reduction, Hill fit
Type: biochemical
RUN PARAMETERS: slight activator, half-saturation for activation; 7.5 mM pyruvate, 0.1 mM NADH; 50 mM Bicine-NaOH pH 8.0; 30 °C; read-out: S 0.5
READOUT TYPE: EC50
Reply with the number and its unit after it.

Need EC50, item O=P(O)(O)OC[C@H]1OC(O)(COP(=O)(O)O)[C@@H](O)[C@@H]1O (stereo partly shown)
1300 µM
